System: NCI-H1993
Assay: relative viability (nuclei count vs DMSO), 5 days (fraction); higher = more cells survive
Conditions: first compound 2.53 µM
Entries and their relative viability

{"compound": "Cc1cnc(-c2cnc(NCCNc3ccc(C#N)cn3)nc2-c2ccc(Cl)cc2Cl)[nH]1 + O=C(c1cc(Cc2n[nH]c(=O)c3ccccc23)ccc1F)N1CCN(C(=O)C2CC2)CC1 [Olaparib] (partner 8 µM)", "relative viability": 1.2}
{"compound": "O=c1[nH]c2ccccc2n1C1CCN(CCCC(c2ccc(F)cc2)c2ccc(F)cc2)CC1 [Pimozide] + CC(=O)c1c(C)c2cnc(Nc3ccc(N4CCNCC4)cn3)nc2n(C2CCCC2)c1=O [Palbociclib] (partner 0.5 µM)", "relative viability": 0.556}
{"compound": "O=c1[nH]c2ccccc2n1C1CCN(CCCC(c2ccc(F)cc2)c2ccc(F)cc2)CC1 [Pimozide] + COc1cc2c(Oc3ccc(NC(=O)C4(C(=O)Nc5ccc(F)cc5)CC4)cc3F)ccnc2cc1OCCCN1CCOCC1 [Foretinib] (partner 0.25 µM)", "relative viability": 0.788}
{"compound": "O=c1[nH]c2ccccc2n1C1CCN(CCCC(c2ccc(F)cc2)c2ccc(F)cc2)CC1 [Pimozide] + Nc1ncn([C@H]2C[C@H](O)[C@@H](CO)O2)c(=O)n1 [Decitabine] (partner 2 µM)", "relative viability": 0.556}
